Reference source: patent US20140051706A1

- assay procedure: Plasma stability test
- Type: in vitro ADME
- conditions used: human fresh plasma; read-out: ½t (plasma half-life)
experimental endpoint: half-life at 2.5 µg/mL (h)
Numbers only, in h.

Example entries begin here.
[
  {
    "compound": "CCCCC(=O)Oc1ccc(C[C@H]2C(=O)N(Cc3cccc4cccnc34)[C@@H](C)C3N2C(=O)CN(C)N3C(=O)NCc2ccccc2)cc1 (stereo partly drawn)",
    "half-life at 2.5 µg/mL, h": 2.75
  },
  {
    "compound": "CC(=O)Oc1ccc(C[C@H]2C(=O)N(Cc3cccc4cccnc34)[C@@H](C)C3N2C(=O)CN(C)N3C(=O)NCc2ccccc2)cc1 (stereo partly drawn)",
    "half-life at 2.5 µg/mL, h": 0.733
  }
]

Using the record for CCCCCCCCC(=O)Oc1ccc(C[C@H]2C(=O)N(Cc3cccc4cccnc34)[C@@H](C)C3N2C(=O)CN(C)N3C(=O)NCc2ccccc2)cc1 (stereo partly drawn) , report its half-life at 2.5 µg/mL. 2.77
